tested on: MCF7; assay: percentage of EdU-negative (G0-arrested) nuclei per well, 72 h; higher = more G0 arrest; conditions: protein concentration 0.0225 µM; reference: sequence is the full UniProt precursor, the tested protein was the secreted form or ectodomain;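 note: secreted proteins added to cultured cells, EdU pulse at the end, nuclei found by Hoechst imaging, EdU status from nuclear versus surrounding ring intensity ratio, PBS as neutral control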
measure: percentage of EdU-negative (%)
One number for each entry, in %.

sequence.input: MAEGNTLISVDYEIFGKVQGVFFRKHTQAEGKKLGLVGWVQNTDRGTVQGQLQGPISKVRHMQEWLETRGSPKSHIDKANFNNEKVILKLDYSDFQIVK [G3V2U7]
unit.string: %
percentage of EdU-negative: 24.4
//
sequence.input: MAQHHLWILLLCLQTWPEAAGKDSEIFTVNGILGESVTFPVNIQEPRQVKIIAWTSKTSVAYVTPGDSETAPVVTVTHRNYYERIHALGPNYNLVISDLRMEDAGDYKADINTQADPYTTTKRYNLQIYRRLGKPKITQSLMASVNSTCNVTLTCSVEKEEKNVTYNWSPLGEEGNVLQIFQTPEDQELTYTCTAQNPVSNNSDSISARQLCADIAMGFRTHHTGLLSVLAMFFLLVLILSSVFLFRLFKRRQGRIFPEGSCLNTFTKNPYAASKKTIYTYIMASRNTQPAESRIYDEILQSKVLPSKEEPVNTVYSEVQFADKMGKASTQDSKPPGTSSYEIVI [Q9UIB8]
unit.string: %
percentage of EdU-negative: 27.3
//
sequence.input: MVNLAAMVWRRLLRKRWVLALVFGLSLVYFLSSTFKQEERAVRDRNLLQVHDHNQPIPWKVQFNLGNSSRPSNQCRNSIQGKHLITDELGYVCERKDLLVNGCCNVNVPSTKQYCCDGCWPNGCCSAYEYCVSCCLQPNKQLLLERFLNRAAVAFQNLFMAVEDHFELCLAKCRTSSQSVQHENTYRDPIAKYCYGESPPELFPA [Q9H741]
unit.string: %
percentage of EdU-negative: 26.4

Provide each entry's percentage of EdU-negative from the list below.
1. MQCWQQPFLRFLQQPFFLATASLAGSSSSFNVLIPKRDEDGDGEGPGDVTAGVSRAAGSPSGWEAPWVQQPRCCRRATPVCCAGQGPPRSLQQGGSEVLLGQLCSPEPDWLPSSGPKVAKQVFQVAAELLQHPEHFVPSSVPEGCVHKPGSTCDGSLKGRAYPSCVPKRDPEHSREESHPLSG [Q6UXR6]
2. MARLALSPVPSHWMVALLLLLSAEPVPAARSEDRYRNPKGSACSRIWQSPRFIARKRGFTVKMHCYMNSASGNVSWLWKQEMDENPQQLKLEKGRMEESQNESLATLTIQGIRFEDNGIYFCQQKCNNTSEVYQGCGTELRVMGFSTLAQLKQRNTLKDGIIMIQTLLIILFIIVPIFLLLDKDDSKAGMEEDHTYEGLDIDQTATYEDIVTLRTGEVKWSVGEHPGQE
3. MKYLRHRRPNATLILAIGAFTLLLFSLLVSPPTCKVQEQPPAIPEALAWPTPPTRPAPAPCHANTSMVTHPDFATQPQHVQNFLLYRHCRHFPLLQDVPPSKCAQPVFLLLVIKSSPSNYVRRELLRRTWGRERKVRGLQLRLLFLVGTASNPHEARKVNRLLELEAQTHGDILQWDFHDSFFNLTLKQVLFLQWQETRCANASFVLNGDDDVFAHTDNMVFYLQDHDPGRHLFVGQLIQNVGPIRAFWSKYYVPEVVTQNERYPPYCGGGGFLLSRFTAAALRRAAHVLDIFPIDDVFLGMCLELEGLKPASHSGIRTSGVRAPSQRLSSFDPCFYRDLLLVHRFLPYEMLLMWDALNQPNLTCGNQTQIY [Q9Y2A9]

1: 26.2; 2: 25.5; 3: 25.7

Consider the sequence MLPAAMKGLGLALLAVLLCSAPAHGLWCQDCTLTTNSSHCTPKQCQPSDTVCASVRITDPSSSRKDHSVNKMCASSCDFVKRHFFSDYLMGFINSGILKVDVDCCEKDLCNGAAGAGHSPWALAGGLLLSLGPALLWAGP and give its measured percentage of EdU-negative.
25.6

These data points were gathered from the supplement of paper PMC11316812.
